- Tested on: F380Y/beta1
- experiment.summary: modulators of BK channel variants, profiling panel, selectivity assay, cell-based, U2OS BacMam, thallium flux, beta subunits (AID 1259406);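 note: initial slope of Thallos dye fluorescence rise after thallium is added; log ratio against the mean of 0.3% DMSO vehicle wells on the same plate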
- settings: at 30 µM
Sorting guide: entries reporting log fold change Tl+ flux beneath -0.02 go in the 1 (yes) pile, the rest go in the 0 (no) pile.

Use these answered entries as a reference point.
CC(C)c1cccc(C(C)C)c1O    1 (yes)
CC[C@@H](C(N)=O)N1CCCC1=O    1 (yes)
CN1C(=O)COc2c(C(=O)NC3CN4CCC3CC4)cc(Cl)cc21 (stereo not given)    0 (no)
Clc1ccc(COC(Cn2ccnc2)c2ccc(Cl)cc2Cl)cc1 (stereo not given)    1 (yes)

Note: attention shifts to another entry.
Item "Cc1nnc2n1-c1ccc(Cl)cc1C(c1ccccc1)=NC2" : log fold change Tl+ flux beneath -0.02, strictly?
0 (no)
